All figures here come from PubChem BioAssay AID180.

Test system: BDF1 mice, Adenocarcinoma 755 s.c., tumor weight T/C
test-protocol: NCI In Vivo Anticancer Drug Screen. Data for tumor model Adenocarcinoma 755 (subcutaneous) in B6D2F1 (BDF1) mice
experimental-setup: endpoint: mean tumor weight; dose: 25.0 mg/kg/injection; schedule: Q01DX011 (ip); vehicle: carboxymethylcellulose (CMC); higher = larger tumour
observable: T/C

- compound: "Nc1nc(S(N)(=O)=O)nc2nc[nH]c12"
  test-target: "BDF1 mice, Adenocarcinoma 755 s.c., tumor weight T/C"
  T/C: "57 % of control"
- compound: "Nc1nc2c(ncn2C2CCCC2)c(=O)[nH]1"
  test-target: "BDF1 mice, Adenocarcinoma 755 s.c., tumor weight T/C"
  T/C: "88 % of control"
- compound: "FC(F)(F)c1nc(=S)c2[nH]cnc2[nH]1"
  test-target: "BDF1 mice, Adenocarcinoma 755 s.c., tumor weight T/C"
  T/C: "81 % of control"

*Q* I'd like to know its T/C. The compound in question is C=CC(=O)NCNC(=O)CCBr
*A* 34 % of control

*Q* Please give the measured T/C for this compound: O=C(O)/C=C\C(=O)Nc1nccs1
*A* 80 % of control

*Q* For the compound COc1cc(C(=O)[O][Hg][CH2]C2CC(O)CC([CH2][Hg][O]C(=O)c3cc(OC)c(OC)c(OC)c3)O2)cc(OC)c1OC (configuration not stated) , what T/C is on record?
*A* 61 % of control

*Q* So what does the record say about T/C for CCOC(=O)n1cnc2ncnc(SC)c21 ?
*A* 15 % of control
